# Tested on: PC-3 prostate
# experiment.summary: NCI tumour cell line growth inhibition, 48 h
assay.metric: TGI

Query string: Which TGI is listed for COc1ccc(OC2OC(CO)C(OCc3ccccc3)C(OCc3ccccc3)C2OCc2ccccc2)cc1 (stereo not drawn) ?
Result string: > 100 µM

Query string: Would you mind doing Cc1cc(C)c(S(=O)(=O)N(CCCN)OCCCON(CCCN)S(=O)(=O)c2c(C)cc(C)cc2C)c(C)c1 as well?
Result string: 3.45 µM

Query string: And the next one, c1cncc(CC2(c3cc4ccccc4[nH]3)OCCO2)c1 ?
Result string: > 100 µM

Query string: Same lookup for Cc1ccc(-c2csc(NC(=O)CN3CCN(c4cc5c(cc4F)c(=O)c(C(=O)O)cn5C4CC4)CC3)n2)cc1 , please.
Result string: > 100 µM

Query string: Param item: CCN(CC)C(=S)Oc1cc2oc(=O)cc(C)c2cc1Cl
Result string: > 100 µM

Query string: What do you have for COc1ccc(-c2c3c(n(C4OC(CO)C(O)C(O)C4O)c(=S)c2C#N)CCC3)cc1 (stereo not drawn) ?
Result string: > 100 µM

Query string: Same read-out for Cc1cc(S(=O)(=O)NC#N)c(S/C(=N\Nc2ccc([N+](=O)[O-])cc2)c2ccc(Cl)cc2)cc1Cl ?
Result string: > 100 µM

Query string: Repeat with COC(=O)Cc1ccc2c(cnn2-c2ccccc2)c1OC
Result string: > 10 µM

Query string: Item: Cc1cc2c(cc1C)N(C(=O)CCl)CCN2C(=O)CCl
Result string: 2.89 µM

Query string: Now the same for CN1C(=O)N(C)C(O)C(Cl)(Br)C1=O (stereo not drawn)
Result string: > 100 µM

Query string: Next record, please: O=c1[nH]c2nc3ccccc3nc2[nH]c1=O
Result string: > 100 µM

Query string: Further, for Cc1sc2nc3c4ccccc4c(NCCCN(C)C)nn3c(=O)c2c1C ?
Result string: 24.2 µM

Query string: Also need COc1ccc(C2=NN(C=O)C(c3cccc(Nc4ccnc5cc(Cl)ccc45)c3)C2)cc1 (stereo not drawn) , thanks.
Result string: > 100 µM

Query string: Follow-up item: COc1ccc(Cn2c3c(cc(OS(=O)(=O)C(F)(F)F)c2=O)Cc2ccccc2-3)cc1
Result string: > 100 µM

Query string: Try the molecule NC(=O)c1cc2c3ccccc3ccn2c1-c1ccccc1
Result string: 12.6 µM

Query string: Then what about the molecule C=C(C)OCOCCOC ?
Result string: > 100 µM

Query string: For O=C1c2cc(Cl)ccc2-c2c1c1ccc([N+](=O)[O-])cc1c(=O)n2CCCBr then?
Result string: > 100 µM

Query string: Likewise for COc1cc2c(=O)n(CCN)c3c4cc5c(cc4ccc3c2cc1OC)OCO5 ?
Result string: 2.27 µM

Query string: Same question for CC(C)C(=O)C(C)(C)CCc1ccccn1 please.
Result string: > 100 µM

Query string: Would you mind doing CNCCn1c(=O)c2cc(OC)c(OC)cc2c2ccc3cc4c(cc3c21)OCO4 as well?
Result string: 6.23 µM

Query string: Another molecule to check: Cn1c(=O)c2c(nc3n(Cc4ccccc4)c(=O)c(NCCCBr)cn23)n(C)c1=O
Result string: > 100 µM

Query string: Follow-up item: Cc1[nH]nc(C(=O)n2nc(N)c3ccccc32)c1[N+](=O)[O-]
Result string: > 100 µM

Query string: COc1ccc(-c2oc3c(OC)c(OC)c(OC)c(OC)c3c(=O)c2OC)cc1OC , same question.
Result string: > 100 µM

Query string: Here is the next molecule: CCC[n+]1cc2cc(OC)c(OC)cc2c2c1-c1cc3c(cc1C2)OCO3
Result string: 20.7 µM

Query string: Now try C=C1C(=O)O[C@H]2[C@H]1CC/C(COC(=O)c1cc3cc(Cl)ccc3[nH]1)=C\CC[C@@]1(C)O[C@@H]21 .
Result string: 6.58 µM

Query string: Proceed to COc1ccc(Cn2cc3c(c2)-c2oncc2CC3)cc1
Result string: 61.1 µM

Query string: Repeat for the following molecule: COc1cc(C(=O)Nc2cc3c(cc2Oc2cc(C)cc(C)c2)C(=O)N(C)[C@@H](CC(=O)N(C)O)C(=O)N3)c(Br)c(OC)c1OC
Result string: 0.00358 µM

Query string: Similarly, NC(N)=NCCC1OC(=O)C2=C1c1c(O)ccc3nccc(c13)O2 (stereo not drawn) ?
Result string: > 100 µM

Query string: Same read-out for O=C1C(c2ccccc2)=[N+]([O-])c2ccccc21 ?
Result string: 27.3 µM

Query string: Now consider O=C(O)c1cccc2cccc(-c3cccc4cccc(C(=O)O)c34)c12 and answer again.
Result string: > 100 µM

Query string: Same for CSc1nc(NC(C)C)c2c(n1)Sc1nc3ccccc3n1N=C2
Result string: > 100 µM

Query string: Entry CN(C)CCCNC(=O)c1ccc2c(c1)oc1cc3ccccc3c(=O)n12 please
Result string: > 50 µM

Query string: Can you handle Nc1nc(Cl)cc(NCC2(O)CC2)n1 next?
Result string: > 100 µM

Measured values drawn from PubChem BioAssay (NCI) for this set.
